Would you mind telling me the reported Kd of each entry?
Target: Quadruplex DNA
Assay: Binding affinity to c-MYC G4- quadruplex DNA Pu22 (unknown origin) assessed as binding constant by SPR analysis
Format: nucleic-acid assay
Provide the reading as a plain figure in µM.

Find the measured Kd of CCn1c2ccccc2c2cc(-c3nc(-c4ccc(N5CCN(C)CC5)cc4)c(-c4ccc(N5CCN(C)CC5)cc4)n3-c3ccc(OCCOCCO[C@@H]4O[C@H](CO)[C@@H](O)[C@H](O)[C@H]4O)cc3)ccc21 (single isomer, unassigned) and report it.
1.6

Find the measured Kd of CCn1c2ccccc2c2cc(-c3nc(-c4ccc(N5CCN(C)CC5)cc4)c(-c4ccc(N5CCN(C)CC5)cc4)n3-c3ccc(OC)cc3)ccc21 and report it.
7

Find the measured Kd of CCn1c2ccccc2c2cc(-c3nc(-c4ccc(N5CCN(C)CC5)cc4)c(-c4ccc(N5CCN(C)CC5)cc4)n3-c3ccc(OCCCOC4(C)O[C@H]5O[C@H](COC(C)=O)[C@@H](OC(C)=O)[C@H](OC(C)=O)[C@H]5O4)cc3)ccc21 (single isomer, unassigned) and report it.
4.1

Find the measured Kd of COc1ccc(-n2c(-c3ccc4c(c3)c3ccccc3n4Cc3cn(CCOCCO[C@@H]4O[C@H](COC(C)=O)[C@@H](OC(C)=O)[C@H](OC(C)=O)[C@H]4OC(C)=O)nn3)nc(-c3ccc(N4CCN(C)CC4)cc3)c2-c2ccc(N3CCN(C)CC3)cc2)cc1 and report it.
3

---

Would you mind telling me the reported ΔTm of each entry?
System: Quadruplex DNA
Experiment: Stabilization of c-MYC G4 quadruplex DNA Pu22 (unknown origin) assessed as change in melting temperature at 2 uM by CD spectroscopy
Assay type: nucleic-acid assay
Provide the reading as a plain figure in °C.

Find the measured ΔTm of COc1ccc(-n2c(-c3ccc4c(c3)c3ccccc3n4Cc3cn([C@@H]4O[C@H](COC(C)=O)[C@@H](OC(C)=O)[C@H](OC(C)=O)[C@H]4OC(C)=O)nn3)nc(-c3ccc(N4CCN(C)CC4)cc3)c2-c2ccc(N3CCN(C)CC3)cc2)cc1 and report it.
13.4

Find the measured ΔTm of CCn1c2ccccc2c2cc(-c3nc(-c4ccc(N5CCN(C)CC5)cc4)c(-c4ccc(N5CCN(C)CC5)cc4)n3-c3ccc(OCCCO[C@@H]4O[C@H](COC(C)=O)[C@@H](OC(C)=O)[C@H](OC(C)=O)[C@H]4OC(C)=O)cc3)ccc21 (single isomer, unassigned) and report it.
13.7

Find the measured ΔTm of CCn1c2ccccc2c2cc(-c3nc(-c4ccc(N5CCN(C)CC5)cc4)c(-c4ccc(N5CCN(C)CC5)cc4)n3-c3ccc(OCCOCCOC4(C)O[C@H]5O[C@H](CO)[C@@H](O)[C@H](O)[C@H]5O4)cc3)ccc21 (single isomer, unassigned) and report it.
20.3

Find the measured ΔTm of CCn1c2ccccc2c2cc(-c3nc(-c4ccc(N5CCN(C)CC5)cc4)c(-c4ccc(N5CCN(C)CC5)cc4)n3-c3ccc(OCCOCCO[C@@H]4O[C@H](COC(C)=O)[C@H](OC(C)=O)[C@H](OC(C)=O)[C@H]4OC(C)=O)cc3)ccc21 (single isomer, unassigned) and report it.
12.8

Find the measured ΔTm of CCn1c2ccccc2c2cc(-c3nc(-c4ccc(N5CCN(C)CC5)cc4)c(-c4ccc(N5CCN(Cc6cn([C@@H]7O[C@H](COC(C)=O)[C@@H](OC(C)=O)[C@H](OC(C)=O)[C@H]7OC(C)=O)nn6)CC5)cc4)[nH]3)ccc21 (single isomer, unassigned) and report it.
15.4

Find the measured ΔTm of CCn1c2ccccc2c2cc(-c3nc(-c4ccc(N5CCN(C)CC5)cc4)c(-c4ccc(N5CCN(Cc6cn(CCOCCO[C@@H]7O[C@H](COC(C)=O)[C@@H](OC(C)=O)[C@H](OC(C)=O)[C@H]7OC(C)=O)nn6)CC5)cc4)[nH]3)ccc21 (single isomer, unassigned) and report it.
17.8

Find the measured ΔTm of CCn1c2ccccc2c2cc(-c3nc(-c4ccc(N5CCN(C)CC5)cc4)c(-c4ccc(N5CCN(C)CC5)cc4)n3-c3ccc(OCCCO[C@@H]4O[C@H](COC(C)=O)[C@H](OC(C)=O)[C@H](OC(C)=O)[C@H]4OC(C)=O)cc3)ccc21 (single isomer, unassigned) and report it.
10.9

Find the measured ΔTm of CCn1c2ccccc2c2cc(-c3nc(-c4ccc(N5CCN(C)CC5)cc4)c(-c4ccc(N5CCN(C)CC5)cc4)n3CCO[C@@H]3O[C@H](COC(C)=O)[C@@H](OC(C)=O)[C@H](OC(C)=O)[C@H]3OC(C)=O)ccc21 (single isomer, unassigned) and report it.
7.1

Find the measured ΔTm of CCn1c2ccccc2c2cc(-c3nc(-c4ccc(N5CCN(C)CC5)cc4)c(-c4ccc(N5CCN(C)CC5)cc4)n3CCOC(C)=O)ccc21 and report it.
11.1

Find the measured ΔTm of CCn1c2ccccc2c2cc(-c3nc(-c4ccc(N5CCN(C)CC5)cc4)c(-c4ccc(N5CCN(C)CC5)cc4)n3-c3ccc(OCCOCCOC(C)=O)cc3)ccc21 and report it.
21.2

Find the measured ΔTm of CCn1c2ccccc2c2cc(-c3nc(-c4ccc(N5CCN(C)CC5)cc4)c(-c4ccc(N5CCN(C)CC5)cc4)n3-c3ccc(OCCOCCO[C@@H]4O[C@H](CO)[C@@H](O)[C@H](O)[C@H]4N)cc3)ccc21 (single isomer, unassigned) and report it.
21.7
